# Tested System: HiBiT-BRM fusion protein in stable HeLa cell line (Homo sapiens, UniProt P51531)
# Construct: expressed in transfected cells
# Sequence (P51531 whole entry, the tested form may be a part): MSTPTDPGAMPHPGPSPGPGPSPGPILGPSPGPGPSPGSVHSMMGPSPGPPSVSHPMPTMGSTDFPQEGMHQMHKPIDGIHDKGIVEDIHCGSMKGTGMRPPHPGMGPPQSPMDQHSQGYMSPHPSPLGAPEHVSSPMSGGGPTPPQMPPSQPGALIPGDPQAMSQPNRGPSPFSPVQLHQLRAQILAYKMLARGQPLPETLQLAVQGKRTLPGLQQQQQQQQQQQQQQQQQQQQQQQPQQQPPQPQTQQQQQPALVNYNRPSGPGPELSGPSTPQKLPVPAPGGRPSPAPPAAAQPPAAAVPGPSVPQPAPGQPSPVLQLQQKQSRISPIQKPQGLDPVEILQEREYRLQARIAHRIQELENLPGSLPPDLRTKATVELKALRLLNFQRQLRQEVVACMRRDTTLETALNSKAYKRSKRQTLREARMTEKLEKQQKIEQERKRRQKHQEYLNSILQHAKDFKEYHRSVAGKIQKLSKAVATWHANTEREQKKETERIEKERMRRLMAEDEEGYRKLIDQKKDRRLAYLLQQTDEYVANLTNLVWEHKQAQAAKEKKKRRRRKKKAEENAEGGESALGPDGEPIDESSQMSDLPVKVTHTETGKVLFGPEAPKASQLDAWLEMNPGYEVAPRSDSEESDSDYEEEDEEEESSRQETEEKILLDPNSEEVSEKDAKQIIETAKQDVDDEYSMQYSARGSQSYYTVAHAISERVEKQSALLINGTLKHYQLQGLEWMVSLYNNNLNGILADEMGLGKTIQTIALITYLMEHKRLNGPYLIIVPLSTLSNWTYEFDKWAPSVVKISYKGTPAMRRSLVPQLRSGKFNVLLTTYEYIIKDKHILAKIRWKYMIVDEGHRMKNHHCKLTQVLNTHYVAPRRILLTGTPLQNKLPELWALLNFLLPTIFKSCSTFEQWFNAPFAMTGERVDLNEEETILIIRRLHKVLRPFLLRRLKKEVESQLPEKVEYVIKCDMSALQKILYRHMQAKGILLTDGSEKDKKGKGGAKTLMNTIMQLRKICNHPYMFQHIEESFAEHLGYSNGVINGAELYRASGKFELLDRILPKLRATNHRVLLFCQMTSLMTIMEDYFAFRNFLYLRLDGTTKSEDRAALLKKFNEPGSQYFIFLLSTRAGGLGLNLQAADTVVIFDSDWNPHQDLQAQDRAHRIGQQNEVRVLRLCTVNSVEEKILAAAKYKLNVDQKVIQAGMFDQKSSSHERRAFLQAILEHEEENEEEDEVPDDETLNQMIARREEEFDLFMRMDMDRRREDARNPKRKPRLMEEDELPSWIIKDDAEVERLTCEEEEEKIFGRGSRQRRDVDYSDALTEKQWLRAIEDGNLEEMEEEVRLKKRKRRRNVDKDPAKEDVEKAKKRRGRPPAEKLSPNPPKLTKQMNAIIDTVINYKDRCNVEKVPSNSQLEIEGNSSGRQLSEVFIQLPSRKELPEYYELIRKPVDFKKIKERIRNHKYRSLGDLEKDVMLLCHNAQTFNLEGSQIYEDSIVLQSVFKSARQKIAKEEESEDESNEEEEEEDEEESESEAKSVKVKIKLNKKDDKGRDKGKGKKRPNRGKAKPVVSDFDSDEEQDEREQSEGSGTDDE
# Assay Explanation: HiBiT-BRM cell-based degradation assay (Nano-Glo HiBiT Lytic Detection, 24 h)
# Set-up: scale not given here
# Condition Parameters: HeLa HiBiT-BRM cells, read-out: BRM HiBit Degradation IC50
# maps each entry to its DC50

Lookup: Param item = Cc1ncsc1-c1ccc([C@H](C)NC(=O)[C@@H]2C[C@@H](O)CN2C(=O)[C@@H](c2cc(N3CC4=C(CN(c5ccc6cc(-c7ccccc7O)nnc6c5)C4)C3)no2)C(C)C)cc1 [Compound 228] ; retrieve measured DC50.
Found: < 10 nM

Lookup: Param item = Cc1ncsc1-c1ccc([C@H](C)NC(=O)[C@@H]2C[C@@H](O)CN2C(=O)[C@@H](c2cc(N3CCC4(CC3)CC(c3ccc5cc(-c6ccccc6O)nnc5c3)C4)no2)C(C)C)cc1 [Compound 26] ; retrieve measured DC50.
Found: < 10 nM

Lookup: Param item = Cc1ncsc1-c1ccc([C@H](C)NC(=O)[C@@H]2C[C@@H](O)CN2C(=O)[C@@H](c2cc(N3CC4(C3)CN(c3cc5nnc(-c6ccccc6O)cc5cc3OC3CC3)C4)no2)C(C)C)cc1 [Compound 253] ; retrieve measured DC50.
Found: < 10 nM

Lookup: Param item = Cc1ncsc1-c1ccc([C@H](C)NC(=O)[C@@H]2C[C@@H](O)CN2C(=O)C(C(C)C)n2cc(N3CCC34CN(c3ccc5cc(-c6ccccc6O)nnc5c3)C4)nn2)cc1 (stereo partly shown) [Compound 265] ; retrieve measured DC50.
Found: > 100 nM

Lookup: Param item = Cc1ncsc1-c1ccc([C@H](C)NC(=O)[C@@H]2C[C@@H](O)CN2C(=O)[C@H](C(C)C)n2cc(-c3ccc4nnc(-c5ccccc5O)cc4c3Cl)nn2)cc1 [Compound 190] ; retrieve measured DC50.
Found: < 10 nM

Lookup: Param item = Cc1ncsc1-c1ccc([C@H](C)NC(=O)[C@@H]2C[C@@H](O)CN2C(=O)[C@@H](c2cc(N3CC4(C3)CN(c3cc5nnc(-c6ccccc6O)cc5cc3Cl)C4)no2)C(C)C)cc1 [Compound 157] ; retrieve measured DC50.
Found: < 10 nM

Lookup: Param item = CC(C)C(C(=O)N1C[C@H](O)C[C@H]1C(=O)N[C@@H](C)c1ccc(Cl)cc1)c1cc(N2CC3(CN(c4ccc5cc(-c6ccccc6O)nnc5c4)C3)C2)no1 (stereo partly shown) [Compound 113] ; retrieve measured DC50.
Found: < 10 nM

Lookup: Param item = Cc1ncsc1-c1ccc([C@H](C)NC(=O)[C@@H]2C[C@@H](O)CN2C(=O)[C@@H](c2cc(N3CC4(CN(Cc5ccc6cc(-c7ccccc7O)nnc6c5)C4)C3)no2)C(C)C)cc1 [Compound 232] ; retrieve measured DC50.
Found: > 10 nM

Lookup: Param item = Cc1ncsc1-c1ccc([C@H](C)NC(=O)[C@@H]2C[C@@H](O)CN2C(=O)[C@@H](c2cc(N3CC4(C3)CN(c3cc5nnc(-c6ccccc6O)cc5cc3C(F)F)C4)no2)C(C)C)cc1 [Compound 168] ; retrieve measured DC50.
Found: < 10 nM

Lookup: Param item = Cc1ncsc1-c1ccc([C@H](C)NC(=O)[C@@H]2C[C@@H](O)CN2C(=O)[C@H](C(C)C)n2cc(-c3ccc4nnc(-c5ccccc5O)cc4c3C)nn2)cc1 [Compound 203] ; retrieve measured DC50.
Found: > 10 nM

###

# Tested System: HiBit-BRG1 fusion protein in stable HeLa cell line expressing HiBit-BRG1 and LgBit (Homo sapiens, UniProt P51532)
# Construct: expressed in transfected cells
# Sequence (P51532 whole entry, the tested form may be a part): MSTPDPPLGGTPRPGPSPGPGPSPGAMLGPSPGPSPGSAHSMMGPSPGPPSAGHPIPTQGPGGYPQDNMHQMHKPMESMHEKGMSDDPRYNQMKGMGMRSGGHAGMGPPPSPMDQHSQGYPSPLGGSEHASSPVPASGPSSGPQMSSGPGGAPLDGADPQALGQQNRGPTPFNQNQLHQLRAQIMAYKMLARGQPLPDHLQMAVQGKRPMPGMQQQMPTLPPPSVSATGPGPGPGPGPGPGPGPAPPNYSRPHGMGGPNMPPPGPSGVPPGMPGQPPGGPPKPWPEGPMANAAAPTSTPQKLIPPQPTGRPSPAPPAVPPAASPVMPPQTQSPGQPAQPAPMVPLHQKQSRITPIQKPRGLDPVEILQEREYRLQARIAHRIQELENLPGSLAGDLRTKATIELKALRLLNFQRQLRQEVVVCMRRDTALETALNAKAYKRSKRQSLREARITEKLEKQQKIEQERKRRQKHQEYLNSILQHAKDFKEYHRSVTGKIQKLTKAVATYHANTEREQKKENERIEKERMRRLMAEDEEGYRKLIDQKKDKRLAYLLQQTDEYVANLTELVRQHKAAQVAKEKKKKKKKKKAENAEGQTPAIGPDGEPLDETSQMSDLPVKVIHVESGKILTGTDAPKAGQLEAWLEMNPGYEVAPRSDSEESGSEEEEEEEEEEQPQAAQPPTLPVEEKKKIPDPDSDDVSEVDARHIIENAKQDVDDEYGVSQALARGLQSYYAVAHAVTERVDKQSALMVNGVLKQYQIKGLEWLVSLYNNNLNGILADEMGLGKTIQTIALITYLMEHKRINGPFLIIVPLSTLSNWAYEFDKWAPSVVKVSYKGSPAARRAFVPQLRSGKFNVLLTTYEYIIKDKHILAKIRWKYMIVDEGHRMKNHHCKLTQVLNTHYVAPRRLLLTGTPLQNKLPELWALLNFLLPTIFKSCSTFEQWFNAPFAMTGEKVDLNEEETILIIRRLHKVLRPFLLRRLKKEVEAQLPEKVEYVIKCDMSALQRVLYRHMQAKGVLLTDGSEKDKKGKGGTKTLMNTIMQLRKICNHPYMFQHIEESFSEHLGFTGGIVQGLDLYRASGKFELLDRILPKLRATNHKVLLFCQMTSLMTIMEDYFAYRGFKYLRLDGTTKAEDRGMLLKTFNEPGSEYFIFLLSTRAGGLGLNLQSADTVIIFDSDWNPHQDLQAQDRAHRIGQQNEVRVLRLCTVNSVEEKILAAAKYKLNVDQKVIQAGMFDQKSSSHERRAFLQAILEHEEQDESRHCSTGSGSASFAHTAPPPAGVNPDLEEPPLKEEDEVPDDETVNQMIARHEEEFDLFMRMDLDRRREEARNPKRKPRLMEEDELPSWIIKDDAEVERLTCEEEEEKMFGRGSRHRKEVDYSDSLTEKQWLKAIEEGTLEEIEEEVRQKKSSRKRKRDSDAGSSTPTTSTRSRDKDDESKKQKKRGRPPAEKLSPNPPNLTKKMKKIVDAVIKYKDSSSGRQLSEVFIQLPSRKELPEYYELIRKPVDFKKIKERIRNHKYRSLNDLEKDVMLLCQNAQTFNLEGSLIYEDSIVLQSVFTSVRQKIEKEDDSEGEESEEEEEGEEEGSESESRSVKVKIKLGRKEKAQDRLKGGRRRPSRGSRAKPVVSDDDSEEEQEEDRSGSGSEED
# Assay Explanation: HiBiT-BRG1 cell-based degradation assay (Nano-Glo HiBiT, 24 h)
# Condition Parameters: HeLa HiBit-BRG1/LgBit cells, read-out: BRMG1 HiBit Degradation IC50
Assay Readout: DC50

# example entries with known answers
| Chemical String | DC50 |
| --- | --- |
| Cc1ncsc1-c1ccc([C@H](C)NC(=O)[C@@H]2C[C@@H](O)CN2C(=O)[C@@H](c2cc(N3CC4(C3)CN(c3cc5cc(-c6ccccc6O)nnc5cc3C(F)F)C4)no2)C(C)C)cc1 | < 10 nM |
| Cc1ncsc1-c1ccc([C@H](C)NC(=O)[C@@H]2C[C@@H](O)CN2C(=O)[C@@H](c2cc(N3CCC4(CC[C@H](c5ccc6nnc(-c7ccccc7O)cc6c5)C4)CC3)no2)C(C)C)cc1 | > 10 nM |
| Cc1ncsc1-c1ccc([C@H](C)NC(=O)[C@@H]2C[C@@H](O)CN2C(=O)[C@@H](c2cc(N3CC4(CCC(c5ccc6cc(-c7ccccc7O)nnc6c5)CC4)C3)no2)C(C)C)cc1 | < 10 nM |
| Cc1ncsc1-c1ccc([C@H](C)NC(=O)[C@@H]2C[C@@H](O)CN2C(=O)[C@@H](c2cc(-c3cnc(N4CC5(CN(c6ccc7nnc(-c8ccccc8O)cc7c6)C5)C4)nc3)no2)C(C)C)cc1 | < 10 nM |

Below: the item to evaluate.
Lookup: Param item = Cc1ncsc1-c1ccc([C@H](C)NC(=O)[C@@H]2C[C@@H](O)CN2C(=O)[C@@H](c2cc(N3CCOC4(CCN(c5ccc6nnc(-c7ccccc7O)cc6c5)CC4)C3)no2)C(C)C)cc1 ; retrieve measured DC50.
Found: > 10 nM

###

# maps each entry to its DC50
# Tested System: HiBit-BRG1 fusion protein in stable HeLa cell line expressing HiBit-BRG1 and LgBit (Homo sapiens, UniProt P51532)
# Construct: expressed in transfected cells
# Assay Explanation: HiBiT-BRG1 cell-based degradation assay (Nano-Glo HiBiT, 24 h)
# Condition Parameters: HeLa HiBit-BRG1/LgBit cells, read-out: BRMG1 HiBit Degradation IC50

# example entries with known answers
| Chemical String | Endpoint Result |
| --- | --- |
| Cc1ncsc1-c1ccc([C@H](C)NC(=O)[C@@H]2C[C@@H](O)CN2C(=O)[C@@H](c2cc(N3CCCC4(CN(c5ccc6cc(-c7ccccc7O)nnc6c5)C4)C3)no2)C(C)C)cc1 | < 10 nM |
| Cc1ncsc1-c1ccc([C@H](C)NC(=O)[C@@H]2C[C@@H](O)CN2C(=O)[C@@H](c2cc(N3CC4(CC(Oc5ccc6nnc(-c7ccccc7O)cc6c5)C4)C3)no2)C(C)C)cc1 | > 10 nM |

Below: the item to evaluate.
Lookup: Param item = Cc1ncsc1-c1ccc([C@H](C)NC(=O)[C@@H]2C[C@@H](O)CN2C(=O)[C@@H](c2cc(N3CCN([C@H]4CCN(Cc5ccc6nnc(-c7ccccc7O)cc6c5)CC4(F)F)CC3)no2)C(C)C)cc1 ; retrieve measured DC50.
Found: < 10 nM

###

# maps each entry to its DC50
# Tested System: HiBiT-BRM fusion protein in stable HeLa cell line (Homo sapiens, UniProt P51531)
# Construct: expressed in transfected cells
# Assay Explanation: HiBiT-BRM cell-based degradation assay (Nano-Glo HiBiT Lytic Detection, 24 h)
# Parameters: scale not given here
# Condition Parameters: HeLa HiBiT-BRM cells, read-out: BRM HiBit Degradation IC50

| Compound | DC50 |
| --- | --- |
| COc1cc2cc(-c3ccccc3O)nnc2cc1CN1CC[C@@H](N2CCN(c3cc([C@H](C(=O)N4C[C@H](O)C[C@H]4C(=O)N[C@@H](C)c4ccc(-c5scnc5C)cc4)C(C)C)on3)CC2)C(F)(F)C1 | < 10 nM |
| Cc1cc(N2CCC(c3ccc4nnc(-c5ccccc5O)cc4c3)CC2)ncc1-c1cc([C@H](C(=O)N2C[C@H](O)C[C@H]2C(=O)N[C@@H](C)c2ccc(-c3scnc3C)cc2)C(C)C)on1 | > 10 nM |
| Cc1ncsc1-c1ccc(C(C)NC(=O)C2CC(O)CN2C(=O)[C@@H](c2cc(N3CCN([C@@H]4CCN(Cc5cc6nnc(-c7ccccc7O)cc6cc5Cl)CC4(F)F)CC3)no2)C(C)C)cc1 (stereo in doubt) | < 10 nM |
| Cc1ncsc1-c1ccc([C@H](C)NC(=O)[C@@H]2C[C@@H](O)CN2C(=O)[C@@H](c2cc(C3CC4(C3)CN(c3ccc5nnc(-c6ccccc6O)cc5c3)C4)no2)C(C)C)cc1 (single isomer, unassigned) | < 10 nM |
| Cc1ncsc1-c1ccc([C@H](C)NC(=O)[C@@H]2C[C@@H](O)CN2C(=O)[C@@H](c2cc(N3CCC4(CC3)CC(c3ccc5cc(-c6cccc(F)c6O)nnc5c3)C4)no2)C(C)C)cc1 | < 10 nM |
| Cc1ncsc1-c1ccc([C@H](C)NC(=O)[C@@H]2C[C@@H](O)CN2C(=O)[C@@H](c2cc(-c3cnc(N4CC5(CN(c6ccc7nnc(-c8ccccc8O)cc7c6)C5)C4)nc3)no2)C(C)C)cc1 | < 10 nM |
| CC(C)C(C(=O)N1C[C@H](O)C[C@H]1C(=O)N[C@@H](C)c1ccccn1)c1cc(N2CC3(CN(c4ccc5cc(-c6ccccc6O)nnc5c4)C3)C2)no1 (stereo partly drawn) | > 10 nM |
| Cc1ncsc1-c1ccc([C@H](C)NC(=O)[C@@H]2C[C@@H](O)CN2C(=O)C(C(C)C)n2cc(N3CCC4(CCN4c4ccc5cc(-c6ccccc6O)nnc5c4)C3)nn2)cc1 (stereo partly drawn) | > 10 nM |

Below: the item to evaluate.
Lookup: Param item = Cc1ncsc1-c1ccc([C@H](C)NC(=O)[C@@H]2C[C@@H](O)CN2C(=O)[C@@H](c2cc(-c3cnc(N4CC(c5cc(F)c6cc(-c7ccccc7O)nnc6c5)C4)nc3)no2)C(C)C)cc1 ; retrieve measured DC50.
Found: > 10 nM

The reported measurements were obtained from patent US20260193264A1.
